Record set of pIC50 for target or system UniProtKB Q9NUW8.
Sequence (Q9NUW8 whole entry, species assumed): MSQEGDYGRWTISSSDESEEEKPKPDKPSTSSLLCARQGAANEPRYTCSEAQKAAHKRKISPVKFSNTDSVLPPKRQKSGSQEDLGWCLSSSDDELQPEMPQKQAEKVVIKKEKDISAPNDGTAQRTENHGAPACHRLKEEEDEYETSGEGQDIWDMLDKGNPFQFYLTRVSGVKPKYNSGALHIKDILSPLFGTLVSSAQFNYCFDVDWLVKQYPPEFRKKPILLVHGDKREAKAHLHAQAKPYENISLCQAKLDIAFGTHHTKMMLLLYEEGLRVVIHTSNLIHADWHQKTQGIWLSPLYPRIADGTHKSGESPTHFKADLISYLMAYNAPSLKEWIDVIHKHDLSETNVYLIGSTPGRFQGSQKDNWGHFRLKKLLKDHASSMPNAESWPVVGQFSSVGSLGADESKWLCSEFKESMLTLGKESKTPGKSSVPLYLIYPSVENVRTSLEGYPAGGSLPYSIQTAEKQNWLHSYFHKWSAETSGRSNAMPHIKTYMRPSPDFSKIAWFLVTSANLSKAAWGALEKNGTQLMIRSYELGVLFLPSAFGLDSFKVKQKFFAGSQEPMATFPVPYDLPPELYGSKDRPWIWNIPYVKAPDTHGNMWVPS
pIC50: −log10 of the molar value.

Task: Which pIC50 value is on record for O=C1c2cc3c(cc2-c2c1c1cc(F)c(F)cc1c(=O)n2C[C@H](O)CO)OCO3 ?
Output: < 3.95

Task: Can you handle O=C1c2cc3c(cc2-c2c1c1ccc(F)cc1c(=O)n2C[C@H](O)CO)OCO3 next?
Output: < 3.95

Task: Can you handle O=C1c2cc3c(cc2-c2c1c1ccc(Cl)cc1c(=O)n2C[C@H](O)[C@H](O)[C@H](O)CO)OCO3 next?
Output: < 3.95

----------
- Tested on: UACC-62 (Melanoma)
- experimental_details: NCI Developmental Therapeutics antiproliferative assay, UACC-62
- Format: cell-based, human
reported_endpoint: log10 of GI50 (log10 of the value in µM)
Heads up: the numbers are on a log10 scale; they represent GI50 in µM.

Task: Which log10 of GI50 value is on record for O=C1c2ccccc2-c2c1c1ccccc1c(=O)n2C[C@H](O)[C@H](O)[C@H](O)CO [Compound 17b] ?
Output: 0.51

Task: Can you handle C[C@H](O)Cn1c2c(c3ccccc3c1=O)C(=O)c1ccccc1-2 [Compound 27c] next?
Output: 0.79

Task: Can you handle O=C1c2ccccc2-c2c1c1ccccc1c(=O)n2C[C@H](O)[C@H](O)[C@H](O)[C@H](O)CO [Compound 17h] next?
Output: 0.47

Task: Can you handle O=C1c2ccccc2-c2c1c1ccccc1c(=O)n2C[C@@H](O)[C@H](O)[C@H](O)CO [Compound 17a] next?
Output: 0.87

Task: Can you handle C[C@@H](O)Cn1c2c(c3ccccc3c1=O)C(=O)c1ccccc1-2 [Compound 27a] next?
Output: 1.01

Task: Can you handle NC[C@H](O)Cn1c2c(c3ccccc3c1=O)C(=O)c1ccccc1-2 [Compound 27d] next?
Output: -0.50

Task: Can you handle O=C1c2ccccc2-c2c1c1ccccc1c(=O)n2C[C@@H](O)[C@@H](O)[C@H](O)CO [Compound 17e] next?
Output: 0.80

Task: Can you handle COc1cc2c3c(n(C[C@H](O)CO)c(=O)c2cc1OC)-c1ccccc1C3=O next?
Output: -0.84

----------
Could you please report measured log10 GI50 for the items listed next?
- Tested on: HOP-62 (Lung)
- experimental_details: NCI Developmental Therapeutics antiproliferative assay, HOP-62
- Format: cell-based, human
Heads up: the numbers are on a log10 scale; they represent GI50 in µM.

Task: Provide the documented log10 GI50 with HOP-62 (Lung) as the system for O=C1c2ccccc2-c2c1c1ccccc1c(=O)n2C[C@@H](O)[C@H](O)[C@H](O)CO [Compound 17a]
Output: 0.94

Task: Can you handle O=C1c2ccccc2-c2c1c1ccccc1c(=O)n2C[C@H](O)[C@H](O)[C@H](O)[C@H](O)CO [Compound 17h] next?
Output: 0.51

Task: Can you handle NC[C@H](O)Cn1c2c(c3ccccc3c1=O)C(=O)c1ccccc1-2 [Compound 27d] next?
Output: -0.56

Task: Can you handle C[C@H](O)Cn1c2c(c3ccccc3c1=O)C(=O)c1ccccc1-2 [Compound 27c] next?
Output: 0.54

Task: Can you handle C[C@@H](O)Cn1c2c(c3ccccc3c1=O)C(=O)c1ccccc1-2 [Compound 27a] next?
Output: 0.53

Task: Can you handle COc1cc2c3c(n(C[C@H](O)CO)c(=O)c2cc1OC)-c1ccccc1C3=O next?
Output: -0.47

Task: Can you handle O=C1c2ccccc2-c2c1c1ccccc1c(=O)n2C[C@H](O)[C@@H](O)[C@H](O)CO [Compound 17d] next?
Output: 0.51

Task: Can you handle O=C1c2ccccc2-c2c1c1ccccc1c(=O)n2C[C@@H](O)[C@@H](O)[C@H](O)CO [Compound 17e] next?
Output: 0.81

The reported numbers originate from patent US9682990B2.
